# subject-of-test: T1, human PD-L1 ECD-His (human, UniProt Q9NZQ7 19-238)
# T1 construct: extracellular domain; Analyte in all SPR and BLI runs; also called hPD-L1_ECD-His; hPD-L1 ECD-His; not shown: His tag
# assay-overview: SPR, 25 C, antibody captured by anti-human IgG Fc, hPD-L1-His analyte, 1:1 fit
Listing: kon of selected binders
Respond with the bare value in M⁻¹ s⁻¹.

Worked cases, kon given:
PL2#3 IgG2 (antibody, V domains shown, Human IgG2 backbone) VH: EVQLVQSGGGLVKPGGSLRLSCAASGFTFSSYTMNWVRQAPGKGLEWVSSISSGSDYLYYADSVKGRFTISRDNAKNSLYLQMNSLRAEDTAVYYCARNELRWYPQAGAFDRWGQGTMVTVSS VL: QSVVTQPPSMSAAPGQRVTISCSGSSSYIESSYVGWYQQLPGTAPRLLIYDDDMRPSGIPDRFSGSKSGTSATLAITGLQTGDEADYYCEIWRSGLGGVFGGGTKLTVL : 1.32e+06
PL2#4 IgG2 (antibody, V domains shown, Human IgG2 backbone) VH: EVQLVQSGGGLVKPGGSLRLSCAASGFTFSSYTMNWVRQAPGKGLEWVSSISSGSDYLYYADSVKGRFTISRDNAKNSLYLQMNSLRAEDTAVYYCARNELRWYPLAGAFDIWGQGTMVTVSS VL: QSVVTQPPSMSAAPGQRVTISCSGVSSYIESSYVSWYQQLPGTAPRLLIYDDDMRPSGIPDRFSGSKSGTSATLAITGLQTGDEADYYCKIWDSGLGGVFGGGTKLTVL : 882000
PL2#5 IgG2 (antibody, V domains shown, Human IgG2 backbone) VH: EVQLVQSGGGLVKPGGSLRLSCAASGFTFSSYTMNWVRQAPGKGLEWVSSISSGSDYLYYADSVKGRFTISRDNAKNSLYLQMNSLRAEDTAVYYCARNELRWYPFAGAFDIWGQGTMVTVSS VL: QSVVTQPPSMSAAPGQRVTISCSGSSSYIESSYVSWYQQLPGTAPRLLIYDDDMRPSGIPDRFSGSKSGTSATLAITGLQTGDEADYYCEIWDSRLGGVFGGGTKLTVL : 812000
PL2 IgG2 (antibody, V domains shown) VH: EVQLVQSGGGLVKPGGSLRLSCAASGFTFSSYTMNWVRQAPGKGLEWVSSISSGSDYLYYADSVKGRFTISRDNAKNSLYLQMNSLRAEDTAVYYCARNELRWYPQAGAFDIWGQGTMVTVSS VL: QSVVTQPPSMSAAPGQNVTISCSGSSSYIESSYVSWYQQLPGTAPRLLIYDDDMRPSGIPDRFSGSKSGTSATLAITGLQTGDEADYYCEIWDSGLGGVFGGGTKLTVL : 747000

Here is the next item to consider.
Query: Would you mind telling me what kon value was observed for PL2#39 IgG2 (antibody, V domains shown, Human IgG2 backbone) VH: EVQLVQSGGGLVKPGGSLRLSCAASGFTFSSYTMNWVRQAPGKGLEWVSSISSGSDYLYYADSVKGRFTISRDNAKNSLYLQMNSLRAEDTAVYYCARNELRWYPKAGAFDIWGQGTMVTVSS VL: QSVVTQPPSMSAAPGQRVTISCSGSSSYITSSYVSWYQQLPGTAPRLLIYDDDMRPSGIPDRFSGSKSGTSATLAITGLQTGDEADYYCKIWDSGLGGVFGGGTKLTVL ?
Response: 2.04e+06
